- Test system: RARg:RXRa (NR concentration 270 nM, RXRa partner concentration 90 nM)
- MEASUREMENT PROTOCOL: PBM binding z-score (relative to random genomic background probes); higher = stronger binding; sequences stand for … in GC…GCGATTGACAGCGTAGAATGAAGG
RECORDED ENDPOINT: PBM binding z-score
// response body must contain only the number

Fill in PBM binding z-score for record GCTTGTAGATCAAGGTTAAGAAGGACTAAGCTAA
0.382

Fill in PBM binding z-score for record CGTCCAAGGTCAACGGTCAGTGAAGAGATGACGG
6.08

Fill in PBM binding z-score for record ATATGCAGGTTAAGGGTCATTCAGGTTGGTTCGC
4.66

Fill in PBM binding z-score for record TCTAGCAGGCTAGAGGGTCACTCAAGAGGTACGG
2.08

Fill in PBM binding z-score for record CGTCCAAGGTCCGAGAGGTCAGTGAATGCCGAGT
3.1

Fill in PBM binding z-score for record TCTTGTAGTTCAAGCAGGTTAAGAAAGCCTGAGT
1.44

Fill in PBM binding z-score for record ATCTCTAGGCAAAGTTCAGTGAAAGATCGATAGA
1.79
